# credit: PubChem BioAssay AID330

Tested on: P388 leukemia ip, CD2F1 mice, survival T/C
Test: NCI In Vivo Anticancer Drug Screen. Data for tumor model P388 Leukemia (intraperitoneal) in CD2F1 (CDF1) mice
Conditions: endpoint: median survival time; dose: 25.0 mg/kg/injection; schedule: Q01DX009 (ip); vehicle: water
Inconclusive results and toxic doses are left out. Rule for the calls: active = survival T/C of 150% or more; inactive = T/C below 125% in these data.
Select the matching outcome among active, inactive

Solved cases below.
> print(dat)
                             molecule  qualitative.label
1                    C=CCC(=C)C(=O)OC           inactive
2                   COc1cc2cnccc2cc1O           inactive
3  CN(C)c1ccc2c(=O)c(C(=O)O)c[nH]c2c1           inactive

Q: Hi team, can someone confirm the assay call for COc1ccc(-c2nc(C)cc3cc(OC)c(OC)cc23)cc1OC ?
Ans: inactive

Q: What was the test verdict on O=NNc1ncnc2c1ncn2Cc1ccccc1 ?
Ans: inactive

Q: Write down the call the test reported for this molecule. Item: COc1cccc2c1C(=O)c1c(O)c3c(c(O)c1C2=O)CC(O)(C(C)=O)CC3OC1CC(N)C(O)C(C)O1 (stereo unspecified)
Ans: active
